All figures here come from PubChem BioAssay (NCATS).

I'd be grateful if you could share measured Potency for these entries.
- target of assay: Cytochrome P450 3A4 (Homo sapiens) (UniProt P08684)
- Sequence (P08684 whole entry, looked up): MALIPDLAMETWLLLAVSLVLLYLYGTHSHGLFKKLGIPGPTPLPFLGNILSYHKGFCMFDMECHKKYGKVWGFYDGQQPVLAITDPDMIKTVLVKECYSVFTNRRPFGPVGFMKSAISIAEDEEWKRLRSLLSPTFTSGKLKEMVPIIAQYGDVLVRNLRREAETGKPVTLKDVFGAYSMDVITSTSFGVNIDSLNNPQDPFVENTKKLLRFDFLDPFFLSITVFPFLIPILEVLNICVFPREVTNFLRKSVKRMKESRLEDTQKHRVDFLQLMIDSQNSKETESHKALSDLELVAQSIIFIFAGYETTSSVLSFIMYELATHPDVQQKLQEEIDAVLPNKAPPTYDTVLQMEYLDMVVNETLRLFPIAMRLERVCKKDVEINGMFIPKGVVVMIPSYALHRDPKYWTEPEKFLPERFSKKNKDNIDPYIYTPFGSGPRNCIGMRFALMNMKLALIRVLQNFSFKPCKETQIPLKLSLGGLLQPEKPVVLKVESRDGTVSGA
- method notes: qHTS Assay for Inhibitors and Substrates of Cytochrome P450 3A4 (AID 884); further: potency means the concentration at half of the fitted maximal effect; nearly all actives have a fitted effect of over 50% in size
- run parameters: recombinant CYP3A4, Luciferin-PPXE luminescence; series mostly up to 57.1 µM
- Description: NIH Molecular Libraries Screening Centers Network [MLSCN] NIH Chemical Genomics Center [NCGC] The P450 gene superfamily is involved in the metabolism and clearance of xenobiotics. […] The luciferin is then measured by luminescence after the addition of a luciferase detection reagent. […] Inhibitors and some substrates limit the production of luciferin, and decrease measured luminescence. […]
Records with an inconclusive call do not appear. Activity calls are given as the source filed them. The call rests on the fitted dose curve; in most records, active means well fitted inhibition curve with a large enough effect; inconclusive means small, poorly fitted or top-dose-only effect; inactive means no such curve, though single readings can be large or run the other way.

Checklist item: Potency tested on Cytochrome P450 3A4 (Homo sapiens) (UniProt P08684), entry CCCC[C@@H]1C[C@H]1C(NC(=O)c1cccnc1)c1ccc(Cl)cc1 (stereo not given in full) , value?
79.4 nM (active)

Same question, COC(=O)[C@@]1(Cc2ccccc2)[C@H]2c3cc(C(=O)N4CCCC4)n(Cc4ccc(OC)c(OC)c4)c3C[C@H]2CN1C(=O)c1ccccc1 this time
1260 nM (active)

Same question, COc1ccccc1-c1cc(=O)c2cc(O)ccc2o1 this time
12600 nM (active)

Same question, C[C@@H](C(=O)Nc1ccc2ccccc2c1)[C@H]1C[C@]1(C)[C@H](NC(=O)OCc1ccccc1)c1ccccc1 this time
2510 nM (active)

Same question, CCCC[C@@H]1C[C@H]1C(NC(=O)c1ccccc1)c1ccc(Cl)cc1 (stereo not given in full) this time
3980 nM (active)
